The reported numbers originate from paper PMC4505066.

Molecular target: HDAC4 catalytic domain (wild type) (Homo sapiens, UniProt P56524)
Construct: we purified the recombinant catalytic domains of HDACs 4, 5, 7, and 9; hexa-histidine tag (N, cleaved yes); S-tag (N, cleaved yes); made in house; host or cells: Escherichia coli Rosetta (pET30)
Sequence (P56524 655-1084 limits assumed): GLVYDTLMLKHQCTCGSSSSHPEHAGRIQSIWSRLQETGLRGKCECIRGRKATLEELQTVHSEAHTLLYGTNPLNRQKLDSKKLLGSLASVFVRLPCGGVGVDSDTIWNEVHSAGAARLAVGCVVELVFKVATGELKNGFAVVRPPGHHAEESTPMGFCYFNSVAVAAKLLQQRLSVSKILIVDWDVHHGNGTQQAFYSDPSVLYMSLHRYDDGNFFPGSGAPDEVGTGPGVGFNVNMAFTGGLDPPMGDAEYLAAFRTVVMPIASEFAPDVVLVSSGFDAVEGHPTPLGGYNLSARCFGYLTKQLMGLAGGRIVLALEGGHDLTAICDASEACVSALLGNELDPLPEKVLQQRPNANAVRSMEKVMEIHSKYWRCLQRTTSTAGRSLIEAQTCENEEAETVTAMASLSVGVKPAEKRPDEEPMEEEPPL
Assay: Fluorescence anisotropy binding of BODIPY-TMR labeled GSI motif peptides to HDAC4
Conditions: read-out: WT Kd of the GSI peptide in the presence of the HDAC inhibitor
quantity-measured: pKd
Kindly note that pKd refers to -log10 of the concentration in mol/L and answer with the value alone.

query: Consider the molecule CCCC(CCC)C(=O)O [Valproic Acid, valproic acid, reference compound] and give its measured pKd.
result: 5.47
